Data origin, for the record: patent US7868026B2

- testedTarget: CYP3A4 (Homo sapiens)
- Sequence (P08684 whole entry): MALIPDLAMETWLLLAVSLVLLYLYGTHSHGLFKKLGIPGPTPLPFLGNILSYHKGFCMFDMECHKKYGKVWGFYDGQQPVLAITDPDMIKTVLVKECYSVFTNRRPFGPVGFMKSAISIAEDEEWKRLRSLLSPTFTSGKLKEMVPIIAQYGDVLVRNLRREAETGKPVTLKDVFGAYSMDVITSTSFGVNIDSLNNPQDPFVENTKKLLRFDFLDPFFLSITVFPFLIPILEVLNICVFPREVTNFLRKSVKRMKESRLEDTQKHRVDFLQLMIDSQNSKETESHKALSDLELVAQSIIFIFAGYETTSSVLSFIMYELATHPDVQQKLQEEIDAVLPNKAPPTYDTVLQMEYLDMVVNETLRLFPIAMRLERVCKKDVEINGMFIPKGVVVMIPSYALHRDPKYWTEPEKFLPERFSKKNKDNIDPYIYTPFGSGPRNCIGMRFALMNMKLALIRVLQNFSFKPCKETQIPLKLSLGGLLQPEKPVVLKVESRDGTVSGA
- methodSummary: Determination of IC50 against CYP3A4 by measurement of inhibition of testosterone metabolism (human liver microsomes, 6-β-OH-testosterone by LC-MS/MS)
- Assay type: biochemical
- Parameters: 0.1 mg/mL human liver microsomes
- measurementContext: read-out: IC50 (Testo.)
- Description: 2. Determination of IC50 Against CYP3A4 by Measurement of Inhibition of Testosterone Metabolism This assay was performed using a standard 96 well plate design. […] Quantitation of metabolite peak area ratio against an internal standard is determined by LC-MS/MS analysis. The production of 6-β-OH-testosterone from testosterone metabolism is determined after incubation for eight minutes by comparison to a standard curve generated for the metabolite […]
pIC50: −log10 of the molar value.
measurementKind: pIC50

Solved entries (count: 4):
Cc1cncc(NS(=O)(=O)c2ccccc2C(=O)N(C)Cc2cccc(F)c2)c1 [Example 349] :: 7.60
CCCCCNC(=O)c1ccccc1S(=O)(=O)N(C)c1cncc(OC)c1 [Example 364] :: 7.31
CC1CCN(C(=O)c2ccccc2S(=O)(=O)N(C)c2cccnc2)CC1 [Example 356] :: 6.94
Cc1cncc(NS(=O)(=O)c2ccccc2C(=O)N2CCCCC2)c1 [Example 30] :: 6.90

[1] COc1cncc(NS(=O)(=O)c2ccccc2C(=O)NCCc2cccnc2)c1 [Example 384]
[2] COc1cncc(NS(=O)(=O)c2ccccc2C(=O)NCc2c(F)cccc2F)c1 [Example 207]
[3] CCOc1cncc(NS(=O)(=O)c2ccccc2C(=O)NC(C)(C)C)c1 [Example 294]
Order by pIC50, ascending. Reply with the labels, ordered as the question asks.
1, 3, 2

[A] COc1cncc(NS(=O)(=O)c2ccccc2C(=O)NCc2ccc3c(c2)CCO3)c1 [Example 153]
[B] COc1cncc(NS(=O)(=O)c2ccc(F)cc2C(=O)NCc2ccc(F)cc2)c1 [Example 307]
For the pair A and B , which member has the lower pIC50 number? // caller expects the label of the chosen entry
B
(B: 7.44, A: 7.72)
